These entries and their values trace back to patent US12416008B2.

system: galK 1 site; experiment: red/white colony screen of editing efficiency at the galK 1 site (CREATE recombineering); assay type: cell-based, E. coli MG1655; conditions: induced for 3 hours with 1 mM theophylline
Marks after values point to notes of the source that are not given here.
Listing: Editing Efficiency 1 mM Theo of selected substances

substance: A9: agRNA cassette TGAAGGCCGCAACA, SEQ ID NO: 5 (chemistry not given here)
Editing Efficiency 1 mM Theo: 81%**
//
substance: GC9: agRNA cassette GCAGGGCCTCTAAC, SEQ ID NO: 60 (expressed or natural sequence)
Editing Efficiency 1 mM Theo: 0%
//
substance: G1B1: agRNA, 2×4 IL and upper stem cassette GTATCGCTTAAGCC, SEQ ID NO: 2 (expressed or natural sequence)
Editing Efficiency 1 mM Theo: 59%
//
substance: GC3: agRNA cassette GTCCGGCCCCACAC, SEQ ID NO: 54 (expressed or natural sequence)
Editing Efficiency 1 mM Theo: 12%
//
substance: GU16: agRNA cassette GGGAGGCCAGCGAT, SEQ ID NO: 48 (expressed or natural sequence)
Editing Efficiency 1 mM Theo: 0%
//
substance: A14: agRNA cassette GGAGGTACGGTGCC, SEQ ID NO: 10 (expressed or natural sequence)
Editing Efficiency 1 mM Theo: 87%
//
substance: GC2: agRNA cassette GTCAGGCCTATACC, SEQ ID NO: 53 (expressed or natural sequence)
Editing Efficiency 1 mM Theo: 0%
